measured target: 2-Hydroxyacid oxidase 1 (Mus musculus, UniProt Q9WU19)
Sequence (Q9WU19 whole entry): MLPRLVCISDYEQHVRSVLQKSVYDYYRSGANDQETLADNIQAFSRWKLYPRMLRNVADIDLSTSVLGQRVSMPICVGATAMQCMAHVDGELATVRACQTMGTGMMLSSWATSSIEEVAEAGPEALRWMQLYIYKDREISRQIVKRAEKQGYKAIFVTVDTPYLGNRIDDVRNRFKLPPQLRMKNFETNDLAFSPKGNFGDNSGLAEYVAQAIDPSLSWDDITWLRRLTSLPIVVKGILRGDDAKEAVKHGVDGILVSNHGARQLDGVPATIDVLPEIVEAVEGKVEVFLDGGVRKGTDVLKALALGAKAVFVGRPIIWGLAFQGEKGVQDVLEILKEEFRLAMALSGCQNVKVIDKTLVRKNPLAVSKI
procedure summary: Non competitive inhibition of mouse glycolate oxidase in hyperoxaluric-Agxt knockdown mouse primary hepatocyte assessed as reduction in oxalate production in the presence of glycolate measured upto 72 hrs by enzymatic assay
readout name: Ki
Please provide the amount together with its unit, number first.

Reported Ki ( O=C(O)c1nnsc1Sc1ccc(Cl)cc1 ) = 4.5 µM

====

measured target: L-lactate dehydrogenase A chain (Homo sapiens, UniProt P00338)
procedure summary: Inhibition of recombinant human LDHA expressed in BL21 gold (DE3) using sodium pyruvate as substrate preincubated for 10 mins followed by sodium pyruvate and […] addition
Kindly supply the reported pIC50 values for the records listed here.
Answers are plain numbers, as −log10 of the molar value.

Worked cases, answers included:
NS(=O)(=O)c1ccc(Cc2c(-c3ccc(F)c(-c4cccc(Oc5[nH]nnc5C(=O)O)c4)c3)nn(-c3nc(C(=O)O)cs3)c2CC2CC2)cc1F : 10.00
NS(=O)(=O)c1ccc(Cc2c(-c3ccc(F)c(Oc4[nH]nnc4C(=O)O)c3)nn(-c3nc(C(=O)O)cs3)c2CC2CC2)cc1F : 9.40

# batch size: 3; output pIC50 per entry
1. NS(=O)(=O)c1ccc(Cc2c(-c3ccc(F)c(-c4ccc(Sc5nn[nH]c5C(=O)O)cc4)c3)nn(-c3nc(C(=O)O)cs3)c2CC2CC2)cc1F
2. NS(=O)(=O)c1ccc(Cc2c(-c3ccc(F)c(-c4ccc(Oc5nn[nH]c5C(=O)O)cc4)c3)nn(-c3nc(C(=O)O)cs3)c2CC2CC2)cc1F
3. NS(=O)(=O)c1ccc(Cc2c(-c3ccc(F)c(-c4ccc(-c5nn[nH]c5C(=O)O)cc4)c3)nn(-c3nc(C(=O)O)cs3)c2CC2CC2)cc1F

// result
1. 9.52
2. 10.15
3. 9.52

Reported pIC50 ( NS(=O)(=O)c1ccc(Cc2c(-c3cccc(Sc4[nH]nnc4C(=O)O)c3)nn(-c3nc(C(=O)O)cs3)c2CC2CC2)cc1F ) = 9.30
